experimental-system: PGPH activity of purified bovine erythrocyte 20S proteasome (Bos taurus)
Construct: from tissue; host or cells: bovine erythrocytes (red blood cells)
test-description: Enzyme kinetic assay, PGPH activity (Z-LLE-AMC)
Format: biochemical
condition-label: Table 3
Define the label as YES when kobs/[I] PGPH is strictly less than 30 M⁻¹ s⁻¹ and as NO in all remaining cases.

- molecule: "CC(C)C[C@H](NC(=O)[C@H](Cc1ccccc1)NC(=O)[C@@H]1CCCN1C(=O)c1cnccn1)C(=O)C1(C)CO1 (stereo partly drawn)"
  cat: "YES"
- molecule: "CC(=O)N1CCC[C@H]1C(=O)N[C@@H](Cc1ccccc1)C(=O)N[C@@H](CC(C)C)C(=O)[C@@]1(C)CO1"
  cat: "NO"
- molecule: "CC[C@H](C)[C@H](NC(C)=O)C(=O)N[C@H](C(=O)N[C@@H](CC(C)C)C(=O)[C@@]1(C)CO1)C(C)C"
  cat: "YES"
- molecule: "CCCC[C@H](NC(C)=O)C(=O)N1CCC[C@H]1C(=O)N[C@@H](Cc1ccccc1)C(=O)N[C@@H](CC(C)C)C(=O)[C@@]1(C)CO1"
  cat: "NO"
- molecule: "CC(C)CCCCC(=O)N1CCC[C@H]1C(=O)N[C@@H](Cc1ccccc1)C(=O)N[C@@H](CC(C)C)C(=O)[C@@]1(C)CO1"
  cat: "NO"
- molecule: "CC(=O)N1CCC[C@H]1C(=O)N1CCC[C@H]1C(=O)N[C@@H](Cc1ccccc1)C(=O)N[C@@H](CC(C)C)C(=O)[C@@]1(C)CO1"
  cat: "YES"
